Biological target: PARP-1 enzyme (Homo sapiens)
Sequence (P09874 whole entry): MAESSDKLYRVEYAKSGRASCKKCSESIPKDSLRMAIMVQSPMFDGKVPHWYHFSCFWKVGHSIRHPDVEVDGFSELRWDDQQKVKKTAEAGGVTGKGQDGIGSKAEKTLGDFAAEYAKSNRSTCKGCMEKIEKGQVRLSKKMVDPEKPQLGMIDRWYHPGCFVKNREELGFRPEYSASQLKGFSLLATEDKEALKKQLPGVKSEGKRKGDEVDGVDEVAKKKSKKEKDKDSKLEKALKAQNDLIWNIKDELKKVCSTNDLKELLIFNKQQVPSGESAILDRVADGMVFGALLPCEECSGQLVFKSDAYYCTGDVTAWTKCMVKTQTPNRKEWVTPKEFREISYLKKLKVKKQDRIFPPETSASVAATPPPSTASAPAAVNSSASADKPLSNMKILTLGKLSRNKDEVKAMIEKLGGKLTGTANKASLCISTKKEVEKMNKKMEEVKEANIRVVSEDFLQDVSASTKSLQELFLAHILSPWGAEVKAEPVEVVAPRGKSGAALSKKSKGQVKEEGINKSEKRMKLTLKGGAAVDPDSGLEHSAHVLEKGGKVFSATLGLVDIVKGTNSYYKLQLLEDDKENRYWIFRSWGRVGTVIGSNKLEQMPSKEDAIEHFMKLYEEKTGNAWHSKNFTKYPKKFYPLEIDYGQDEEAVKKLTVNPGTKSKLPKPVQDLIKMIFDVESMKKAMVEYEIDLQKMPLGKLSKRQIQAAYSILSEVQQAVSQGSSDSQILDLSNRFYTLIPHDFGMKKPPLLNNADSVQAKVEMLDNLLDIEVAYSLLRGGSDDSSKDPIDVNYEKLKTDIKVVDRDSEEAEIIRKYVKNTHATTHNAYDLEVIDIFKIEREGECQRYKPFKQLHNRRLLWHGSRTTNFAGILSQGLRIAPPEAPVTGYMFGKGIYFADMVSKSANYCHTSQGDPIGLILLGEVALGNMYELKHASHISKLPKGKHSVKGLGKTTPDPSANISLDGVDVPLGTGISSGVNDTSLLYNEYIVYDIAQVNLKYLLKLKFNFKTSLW
readout-name: pIC50
The scale used: pIC50 is minus the common logarithm of the concentration in molar units.

Recorded pIC50, per entry:
[
  {
    "compound": "CCOC1CCN(Cc2cccc3c2Cc2c-3[nH]c(=O)c3c2CCCC3)CC1 [Example 9]",
    "pIC50": 7.03
  },
  {
    "compound": "CCN1CCN(c2cccc3c2Cc2c-3[nH]c(=O)c3cccnc23)CC1 [Example 59]",
    "pIC50": 7.91
  },
  {
    "compound": "COCCN1CCN(c2cccc3c2Cc2c-3[nH]c(=O)c3cccnc23)CC1 [Example 49]",
    "pIC50": 7.25
  },
  {
    "compound": "O=c1[nH]c2c(c3ncccc13)Cc1c(CNC3CCCC3)cccc1-2 [Example 62]",
    "pIC50": 7.55
  },
  {
    "compound": "O=c1[nH]c2c(c3c1CCCC3)Cc1c(CN3CCC(N4CCCC4)CC3)cccc1-2 [Example 23]",
    "pIC50": 7.90
  }
]

Next compound, pIC50 to be filled in.
Look up pIC50 of CC(C)N1CCN(c2cccc3c2Cc2c-3[nH]c(=O)c3cccnc23)CC1 [Example 60] and report it.
7.72

---

Molecular target: PARP (Mus musculus, UniProt P11103)
Construct: PARP Activity in Cultured Macrophages, Using a Whole-Cell Based Assay; endogenous in cells
Sequence (P11103 whole entry): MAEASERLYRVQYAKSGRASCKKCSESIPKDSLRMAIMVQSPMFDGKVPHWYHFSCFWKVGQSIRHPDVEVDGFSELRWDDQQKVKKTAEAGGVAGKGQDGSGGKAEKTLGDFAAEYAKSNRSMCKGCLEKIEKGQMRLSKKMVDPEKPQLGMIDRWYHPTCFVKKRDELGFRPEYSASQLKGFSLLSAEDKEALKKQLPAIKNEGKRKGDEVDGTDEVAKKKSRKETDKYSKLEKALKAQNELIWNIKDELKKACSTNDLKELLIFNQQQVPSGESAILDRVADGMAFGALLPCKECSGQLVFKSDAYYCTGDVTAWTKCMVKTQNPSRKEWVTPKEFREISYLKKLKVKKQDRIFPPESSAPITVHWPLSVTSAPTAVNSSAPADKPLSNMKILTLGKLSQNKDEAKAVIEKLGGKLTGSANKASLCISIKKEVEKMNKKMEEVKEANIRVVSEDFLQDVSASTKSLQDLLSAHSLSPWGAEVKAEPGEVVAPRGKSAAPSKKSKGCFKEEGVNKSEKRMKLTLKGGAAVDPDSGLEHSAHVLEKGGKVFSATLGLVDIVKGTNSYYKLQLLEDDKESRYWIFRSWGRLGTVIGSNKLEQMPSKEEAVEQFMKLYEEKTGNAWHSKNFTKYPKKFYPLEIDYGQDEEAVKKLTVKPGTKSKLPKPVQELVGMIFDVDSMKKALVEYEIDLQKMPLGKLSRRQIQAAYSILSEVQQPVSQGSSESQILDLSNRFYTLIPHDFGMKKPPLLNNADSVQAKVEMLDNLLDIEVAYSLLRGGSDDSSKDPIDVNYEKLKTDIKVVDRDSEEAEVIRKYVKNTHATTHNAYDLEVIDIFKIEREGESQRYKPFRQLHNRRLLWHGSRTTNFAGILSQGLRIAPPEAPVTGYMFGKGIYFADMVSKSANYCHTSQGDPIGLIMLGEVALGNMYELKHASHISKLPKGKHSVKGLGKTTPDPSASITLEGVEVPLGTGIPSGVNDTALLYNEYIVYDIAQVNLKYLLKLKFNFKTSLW
Assay: PARP activity in cultured macrophages, whole-cell based assay (3H-NAD+ incorporation after hydrogen peroxide)
Conditions: murine RAW macrophages, 1 hour pretreatment, hydrogen peroxide 0.5 mM
readout-name: log10(EC50) (log10 of the value in nM)
In our notation, the value equals log10 of EC50 in nM.

Solved cases below.
[
  {
    "compound": "COCCNCc1cccc2c1Cc1c-2[nH]c(=O)c2c1CCCC2 [Example 27]",
    "readout-name": "log10(EC50)",
    "value": 1.20
  },
  {
    "compound": "CCN(CC)Cc1ccc2c(c1)Cc1c-2[nH]c(=O)c2c1CCCC2 [Example 64]",
    "readout-name": "log10(EC50)",
    "value": 0.65
  },
  {
    "compound": "CCOC1CCN(Cc2cccc3c2Cc2c-3[nH]c(=O)c3c2CCCC3)CC1 [Example 9]",
    "readout-name": "log10(EC50)",
    "value": 1.10
  }
]

Return reported log10(EC50). Input compound: O=c1[nH]c2c(c3ncccc13)Cc1c(CO)cccc1-2 [Example 57]
2.52

Query log10(EC50) for O=c1[nH]c2c(c3c1CCCC3)Cc1cc(CNCCN3CCOCC3)ccc1-2 [Example 45]
1.40

// fetch log10(EC50) given entry COCCN1CCN(c2cccc3c2Cc2c-3[nH]c(=O)c3c2CCCC3)CC1 [Example 43]
0.95

---

Consider compounds characterized by their pIC50 with PARP-1 enzyme (Homo sapiens).
Counter-ions that a name gives are not always drawn.
pIC50 is a log-scale quantity: -log10 of the concentration expressed in molar.

Before answering, review these 5 worked examples.
[
  {
    "compound": "C[C@@H]1CN(c2cccc3c2Cc2c-3[nH]c(=O)c3c2CCCC3)C[C@H](C)O1 [Example 32]",
    "target-of-assay": "PARP-1 enzyme (Homo sapiens)",
    "pIC50": 7.64
  },
  {
    "compound": "O=c1[nH]c2c(c3sccc13)Cc1c(CNC3CCCC3)cccc1-2 [Example 55]",
    "target-of-assay": "PARP-1 enzyme (Homo sapiens)",
    "pIC50": 7.39
  },
  {
    "compound": "O=c1[nH]c2c(c3c1CCCC3)Cc1c(CN3CC=CCC3)cccc1-2 [Example 69]",
    "target-of-assay": "PARP-1 enzyme (Homo sapiens)",
    "pIC50": 7.26
  },
  {
    "compound": "O=c1[nH]c2c(c3c1CCCC3)Cc1c(CNC3(CO)CCCC3)cccc1-2 [Example 50]",
    "target-of-assay": "PARP-1 enzyme (Homo sapiens)",
    "pIC50": 8.20
  },
  {
    "compound": "CC1CCN(Cc2cccc3c2Cc2c-3[nH]c(=O)c3c2CCCC3)CC1 [Example 20, mesylate]",
    "target-of-assay": "PARP-1 enzyme (Homo sapiens)",
    "pIC50": 8.28
  }
]

Give pIC50 for the following compound: O=c1[nH]c2c(c3c1CCCC3)Cc1c(CN3CCC(O)CC3)cccc1-2 [Example 3, hydrochloride]
7.95

Read off the recorded pIC50 for O=c1[nH]c2c(c3ncccc13)Cc1c-2cccc1N1CCN(CC2CC2)CC1 [Example 61]
7.55

Check the records and state pIC50 for O=c1[nH]c2c(c3c1CCCC3)Cc1c(CN3CCCCC3)cccc1-2 [Example 2]
8.29

---

Property: pEC50; scope: individual molecules
Molecular target: PARP (Mus musculus, UniProt P11103)
Construct: PARP Activity in Cultured Macrophages, Using a Whole-Cell Based Assay; endogenous in cells
Test: PARP activity in cultured macrophages, whole-cell based assay (3H-NAD+ incorporation after hydrogen peroxide)
Conditions: murine RAW macrophages, 1 hour pretreatment, hydrogen peroxide 0.5 mM
Where a name gives a salt, the structure may show the parent alone.
Reminder that pEC50 is minus the log10 of a molar concentration.

Some molecules with recorded pEC50:
[
  {
    "molecule": "O=c1[nH]c2c(c3c1CCCC3)Cc1cc(CO)ccc1-2",
    "pEC50": 7.02
  },
  {
    "molecule": "O=c1[nH]c2c(c3ccsc13)Cc1c(CN3CCC(C(F)(F)F)CC3)cccc1-2",
    "pEC50": 8.05
  },
  {
    "molecule": "O=c1[nH]c2c(c3c1CCCC3)Cc1c(CN3CC[C@H](F)C3)cccc1-2",
    "pEC50": 7.93
  },
  {
    "molecule": "CCCCN1CCN(c2cccc3c2Cc2c-3[nH]c(=O)c3cccnc23)CC1",
    "pEC50": 8.21
  },
  {
    "molecule": "O=c1[nH]c2c(c3c1CCCC3)Cc1c(CN3CCC(N4CCCC4)CC3)cccc1-2",
    "pEC50": 7.68
  }
]

Name the value of pEC50 reported for `COC(=O)c1cccc2c1Cc1c-2[nH]c(=O)c2c1CCCC2` when tested on PARP (Mus musculus, UniProt P11103).
7.00

Under PARP (Mus musculus, UniProt P11103): report pEC50 of O=c1[nH]c2c(c3c1CCCC3)Cc1c(CN3CCCCC3)cccc1-2 [Example 2] .
8.82

Fill in pEC50 for `CN(C)Cc1cccc2c1Cc1c-2[nH]c(=O)c2c1CCCC2` tested with PARP (Mus musculus, UniProt P11103).
7.46

Report the value of pEC50 obtained on PARP (Mus musculus, UniProt P11103) for `O=c1[nH]c2c(c3c1CCCC3)Cc1c(CO)cccc1-2` .
7.60

Provide measured pEC50 on PARP (Mus musculus, UniProt P11103) for O=c1[nH]c2c(c3c1CCCC3)Cc1c(CN3CCC(N4CCCCC4)CC3)cccc1-2 [Example 22, dihydrochloride] please.
8.11

Report pEC50 under test system PARP (Mus musculus, UniProt P11103) for `O=c1[nH]c2c(c3c1CCCC3)Cc1cc(CN3CCCC3)ccc1-2` .
7.00

Report pEC50 from PARP (Mus musculus, UniProt P11103) testing of `CSCCC(=O)Nc1cccc2c1Cc1c-2[nH]c(=O)c2c1CCCC2`
7.26

Report pEC50 under test system PARP (Mus musculus, UniProt P11103) for `COC(=O)c1ccc2c(c1)Cc1c-2[nH]c(=O)c2c1CCCC2` .
6.60

# assay system PARP (Mus musculus, UniProt P11103): give pEC50 of `CCCN1CCN(Cc2ccc3c(c2)Cc2c-3[nH]c(=O)c3c2CCCC3)CC1`
6.70

Tell me pEC50 of `O=c1[nH]c2c(c3c1CCCC3)Cc1cc(CN3CCC(F)CC3)ccc1-2` when tested on PARP (Mus musculus, UniProt P11103).
7.43

Param request: pEC50 | system PARP (Mus musculus, UniProt P11103) | item `O=c1[nH]c2c(c3ncccc13)Cc1c-2cccc1N1CCN(CC2CC2)CC1`
7.34

---

Molecular target: PARP (Mus musculus, UniProt P11103)
Construct: PARP Activity in Cultured Macrophages, Using a Whole-Cell Based Assay; endogenous in cells
Assay: PARP activity in cultured macrophages, whole-cell based assay (3H-NAD+ incorporation after hydrogen peroxide)
Settings: murine RAW macrophages, 1 hour pretreatment, hydrogen peroxide 0.5 mM
pEC50: −log10 of the molar value. Counter-ions that a name gives are not always drawn.
Rule: pEC50 of 8 or more gives 1 (yes); anything lower gives 0 (no).

Would you please look over these solved cases?
[
  {
    "compound": "CC1CCN(Cc2cccc3c2Cc2c-3[nH]c(=O)c3c2CCCC3)CC1 [Example 20, mesylate]",
    "target-of-assay": "PARP (Mus musculus, UniProt P11103)",
    "group": "1 (yes)"
  },
  {
    "compound": "C[C@@H]1CN(c2cccc3c2Cc2c-3[nH]c(=O)c3c2CCCC3)C[C@H](C)O1",
    "target-of-assay": "PARP (Mus musculus, UniProt P11103)",
    "group": "0 (no)"
  },
  {
    "compound": "COCCN1CCN(c2cccc3c2Cc2c-3[nH]c(=O)c3cccnc23)CC1",
    "target-of-assay": "PARP (Mus musculus, UniProt P11103)",
    "group": "0 (no)"
  },
  {
    "compound": "O=c1[nH]c2c(c3c1CCCC3)Cc1c(CNC3CCCC3)cccc1-2",
    "target-of-assay": "PARP (Mus musculus, UniProt P11103)",
    "group": "1 (yes)"
  },
  {
    "compound": "CC(C)(O)C(=O)Nc1cccc2c1Cc1c-2[nH]c(=O)c2c1CCCC2",
    "target-of-assay": "PARP (Mus musculus, UniProt P11103)",
    "group": "0 (no)"
  },
  {
    "compound": "O=c1[nH]c2c(c3sccc13)Cc1c(CNC3CCCC3)cccc1-2",
    "target-of-assay": "PARP (Mus musculus, UniProt P11103)",
    "group": "0 (no)"
  }
]

Is the recorded value of pEC50 equal to or greater than 8 for this compound? `CCCN1CCN(c2cccc3c2Cc2c-3[nH]c(=O)c3c2CCCC3)CC1`
0 (no)
